# SYSTEM_NAME: 3-hydroxy-3-methylglutaryl-coenzyme A reductase (Rattus norvegicus) (UniProt P51639)
# Sequence (P51639 whole entry): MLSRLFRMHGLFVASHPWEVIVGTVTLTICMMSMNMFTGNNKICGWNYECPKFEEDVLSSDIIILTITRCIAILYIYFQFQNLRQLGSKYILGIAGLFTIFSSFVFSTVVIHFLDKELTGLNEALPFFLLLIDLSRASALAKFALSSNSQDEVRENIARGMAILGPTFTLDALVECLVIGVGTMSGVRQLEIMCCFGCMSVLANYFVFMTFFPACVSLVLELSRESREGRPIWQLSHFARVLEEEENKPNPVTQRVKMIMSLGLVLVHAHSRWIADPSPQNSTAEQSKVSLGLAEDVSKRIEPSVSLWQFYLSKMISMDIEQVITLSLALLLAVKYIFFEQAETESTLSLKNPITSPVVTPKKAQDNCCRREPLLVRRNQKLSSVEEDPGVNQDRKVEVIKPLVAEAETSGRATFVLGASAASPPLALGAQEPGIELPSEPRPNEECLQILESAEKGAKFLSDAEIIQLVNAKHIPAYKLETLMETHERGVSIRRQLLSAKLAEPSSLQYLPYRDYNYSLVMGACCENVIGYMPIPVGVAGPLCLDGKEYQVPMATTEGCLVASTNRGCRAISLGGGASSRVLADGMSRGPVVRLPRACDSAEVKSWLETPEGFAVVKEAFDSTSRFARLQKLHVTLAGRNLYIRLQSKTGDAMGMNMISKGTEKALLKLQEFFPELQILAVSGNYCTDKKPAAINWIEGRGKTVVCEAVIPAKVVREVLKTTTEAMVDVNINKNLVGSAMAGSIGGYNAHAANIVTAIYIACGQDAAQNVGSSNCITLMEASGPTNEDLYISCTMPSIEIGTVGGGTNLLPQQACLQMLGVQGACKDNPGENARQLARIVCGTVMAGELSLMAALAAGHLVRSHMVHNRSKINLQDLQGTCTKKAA
# TEST_PROTOCOL: The compound was tested for the relative potency with respect to standard compound BMY-21950
Kindly supply the reported Relative potency values for the records listed here.

Previously resolved entries follow.
>>> measured_result("CC(C)C(/C=C/[C@@H](O)C[C@@H](O)CC(=O)O)=C(c1ccc(F)cc1)c1ccc(F)cc1")
0.095
>>> measured_result("Cn1nnnc1C(C=C=C[C@@H](O)C[C@@H](O)CC(=O)O)=C(c1ccc(F)cc1)c1ccc(F)cc1")
0.0033
>>> measured_result("Cc1cc(C(=C(/C=C/[C@@H](O)C[C@@H](O)CC(=O)O)c2nnnn2C)c2ccc(F)c(C)c2)ccc1F")
0.12
>>> measured_result("Cc1ccc(C(=C(/C=C/[C@@H](O)C[C@@H](O)CC(=O)O)c2nnnn2C)c2ccc(C)cc2)cc1")
0.015

Answer for every listed entry: what is its Relative potency? The entries follow.
1. CC[C@H](C)C(=O)O[C@H]1C[C@@H](C)C=C2C=C[C@H](C)[C@H](CC[C@@H]3C[C@@H](O)CC(=O)O3)[C@H]21
2. O=C(O)C[C@H](O)C[C@H](O)/C=C/C(=C(c1ccc(F)cc1)c1ccc(F)cc1)C1N=NN=N1

Key:
1: 0.71; 2: 0.0058

Answer for every listed entry: what is its Relative potency? The entries follow.
1. COc1ccc(C(=C(/C=C/[C@@H](O)C[C@@H](O)CC(=O)O)c2nnnn2C)c2ccc(OC)cc2)cc1
2. CC(C)n1nnnc1C(C=C=C[C@@H](O)C[C@@H](O)CC(=O)O)=C(c1ccc(F)cc1)c1ccc(F)cc1
3. Cn1nnc(C(/C=C/[C@@H](O)C[C@@H](O)CC(=O)O)=C(c2ccc(F)cc2)c2ccc(F)cc2)n1
4. Cc1ccc(C(=C(/C=C/[C@@H](O)C[C@@H](O)CC(=O)O)c2nnnn2C)c2ccc(C)cc2F)c(F)c1
5. Cn1nnnc1C(/C=C/[C@@H](O)C[C@@H](O)CC(=O)O)=C(\c1ccccc1)c1ccc(F)cc1
6. CCn1nnc(C(/C=C/[C@@H](O)C[C@@H](O)CC(=O)O)=C(c2ccc(F)cc2)c2ccc(F)cc2)n1
7. CC(/C=C/[C@@H](O)C[C@@H](O)CC(=O)O)=C(c1ccc(F)cc1)c1ccc(F)cc1
8. Cc1cc(F)ccc1C(=C(/C=C/[C@@H](O)C[C@@H](O)CC(=O)O)c1nnnn1C)c1ccc(F)cc1C

Key:
1. 0.014
2. 0.00015
3. 0.00063
4. 0.032
5. 0.43
6. 9.1e-05
7. 0.0024
8. 0.67

Answer for every listed entry: what is its Relative potency? The entries follow.
1. CCn1nnnc1C(/C=C/[C@@H](O)C[C@@H](O)CC(=O)O)=C(c1ccc(F)cc1)c1ccc(F)cc1
2. CC(C)n1nnc(C(/C=C/[C@@H](O)C[C@@H](O)CC(=O)O)=C(c2ccc(F)cc2)c2ccc(F)cc2)n1

Key:
[0.017, "< 6e-05"]
